test: In vivo topical administration pharmacokinetics of K173, rabbit (aqueous humor, cornea); settings: aqueous humor, topical or ocular, 5 mg/ml solution, 35 L per eye, Group 3 (8 BID doses), topical 5 mg/ml, 4 hr post-last dose, OS, Mean, read-out: K173 Concentrations (ng/mL) in Rabbit Aqueous Humor OS Sample, Mean
Positions of bridges follow the written chain, without caps; N, C: chain ends. Non-standard residues stand in square brackets, D forms with d. Residues, ends and D or L forms follow the SMILES beside them. Triazole bridges read from a SMILES are 1,4-linked. *: point of attachment. Benzoyl(3,5-(OH)2) = O=C(c1cc(O)cc(O)c1)*; Lys(N3) = [N-]=[N+]=NCCCC[C@H](N)C(=O)O; dPhe(4-F) = N[C@H](Cc1ccc(F)cc1)C(=O)O; Nle = CCCC[C@H](N)C(=O)O; Pra = C#CC[C@H](N)C(=O)O
measured-quantity: level at 4 h
Please format your answer as a value with the unit trailing.

Req: For the compound CCCC[C@H](NC(=O)c1cc(O)cc(O)c1)C(=O)N[C@H]1CCCCn2cc(nn2)C[C@@H](C(N)=O)NC(=O)[C@H](Cc2c[nH]c3ccccc23)NC(=O)[C@H](CCCNC(=N)N)NC(=O)[C@@H](Cc2ccc(F)cc2)NC(=O)[C@H](Cc2c[nH]cn2)NC1=O [KR-072] ({Benzoyl(3,5-(OH)2)}-[Nle][Lys(N3)]H[dPhe(4-F)]RW[Pra]-NH2; triazole 2-7) , what level at 4 h is on record?
Resp: 7.33 ng/mL

====

assay: In vivo topical administration pharmacokinetics of K173, rabbit (aqueous humor, cornea); conditions: aqueous humor, topical or ocular, 5 mg/ml, Group 3 (8 BID doses), topical 5 mg/ml, 1 hr post-last dose, OS, Mean, read-out: K173 Concentrations (ng/mL) in Rabbit Aqueous Humor OS Sample, Mean
Positions of bridges follow the written chain, without caps; N, C: chain ends. Non-standard residues stand in square brackets, D forms with d. Residues, ends and D or L forms follow the SMILES beside them. Triazole bridges read from a SMILES are 1,4-linked. *: point of attachment. Benzoyl(3,5-(OH)2) = O=C(c1cc(O)cc(O)c1)*; Lys(N3) = [N-]=[N+]=NCCCC[C@H](N)C(=O)O; dPhe(4-F) = N[C@H](Cc1ccc(F)cc1)C(=O)O; Nle = CCCC[C@H](N)C(=O)O; Pra = C#CC[C@H](N)C(=O)O
measured-quantity: level at 1 h
Please format your answer as a value with the unit trailing.

Req: For the compound CCCC[C@H](NC(=O)c1cc(O)cc(O)c1)C(=O)N[C@H]1CCCCn2cc(nn2)C[C@@H](C(N)=O)NC(=O)[C@H](Cc2c[nH]c3ccccc23)NC(=O)[C@H](CCCNC(=N)N)NC(=O)[C@@H](Cc2ccc(F)cc2)NC(=O)[C@H](Cc2c[nH]cn2)NC1=O [KR-072] ({Benzoyl(3,5-(OH)2)}-[Nle][Lys(N3)]H[dPhe(4-F)]RW[Pra]-NH2; triazole 2-7) , what level at 1 h is on record?
Resp: 6.56 ng/mL

====

Give measured IC50 for each item. Keep answers brief.
target: human recombinant MC1R (Homo sapiens, UniProt Q01726); test: cyclic AMP (cAMP) functional assay, MC1R stable cell line (CHO-K1); conditions: cAMP functional assay;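 also: cells with test compound for 60 min at room temperature in buffer containing IBMX, then cAMP quantified by Eu-cAMP tracer and ULight anti-cAMP detection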
Sequence (Q01726 whole entry): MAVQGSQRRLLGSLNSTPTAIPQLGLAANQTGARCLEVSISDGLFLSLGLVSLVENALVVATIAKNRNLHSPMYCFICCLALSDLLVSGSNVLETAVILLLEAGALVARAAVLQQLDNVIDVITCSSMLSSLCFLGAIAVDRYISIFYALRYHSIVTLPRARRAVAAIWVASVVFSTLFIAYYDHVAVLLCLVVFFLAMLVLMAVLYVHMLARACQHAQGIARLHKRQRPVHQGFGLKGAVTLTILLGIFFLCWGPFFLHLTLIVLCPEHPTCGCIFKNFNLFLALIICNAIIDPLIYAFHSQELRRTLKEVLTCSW
Positions of bridges follow the written chain, without caps; N, C: chain ends. Non-standard residues stand in square brackets, D forms with d. Residues, ends and D or L forms follow the SMILES beside them. Triazole bridges read from a SMILES are 1,4-linked. NMeW = CN[C@@H](Cc1c[nH]c2ccccc12)C(=O)O; Lys(N3) = [N-]=[N+]=NCCCC[C@H](N)C(=O)O; NMeR = CN[C@@H](CCCNC(=N)N)C(=O)O; Nle = CCCC[C@H](N)C(=O)O; Pra = C#CC[C@H](N)C(=O)O
Please format your answer as a value with the unit trailing.

[
  {
    "compound": "CCCC[C@H](NC(C)=O)C(=O)N[C@H]1CCCCn2cc(nn2)C[C@@H](C(N)=O)NC(=O)[C@H](Cc2c[nH]c3ccccc23)N(C)C(=O)[C@H](CCCNC(=N)N)N(C)C(=O)[C@@H](Cc2ccccc2)NC(=O)[C@H](Cc2c[nH]cn2)NC1=O [KR-050] (Ac-[Nle][Lys(N3)]H[dF][NMeR][NMeW][Pra]-NH2; triazole 2-7)",
    "measurement-target": "human recombinant MC1R (Homo sapiens, UniProt Q01726)",
    "IC50": "0.081 nM"
  },
  {
    "compound": "CCCC[C@H](NC(C)=O)C(=O)N[C@H]1CCn2cc(nn2)COCc2cn(nn2)CC[C@@H](C(N)=O)NC(=O)[C@H](Cc2c[nH]c3ccccc23)NC(=O)[C@H](CCCNC(=N)N)NC(=O)[C@@H](Cc2ccccc2)NC(=O)[C@H](Cc2c[nH]cn2)NC1=O",
    "measurement-target": "human recombinant MC1R (Homo sapiens, UniProt Q01726)",
    "IC50": "0.16 nM"
  }
]

// next entry
Req: For the compound CCCC[C@H](NC(C)=O)C(=O)N[C@H]1Cc2cn(nn2)CCCC[C@@H](C(=O)N[C@@H](CCCCN)C(N)=O)NC(=O)[C@H](Cc2c[nH]c3ccccc23)NC(=O)[C@H](CCCNC(=N)N)NC(=O)[C@@H](Cc2ccccc2)NC(=O)[C@H](Cc2c[nH]cn2)NC1=O [KR-067] (Ac-[Nle][Pra]H[dF]RW[Lys(N3)]K-NH2; triazole 2-7) , what IC50 is on record?
Resp: 0.11 nM
